All values here come from paper PMC9732819.

Assay: arterial blood and radiometabolite analysis in nonhuman primates
Format: in vivo, rhesus macaques
Conditions: male, rhesus monkey, arterial plasma
PROPERTY LABEL: fraction unbound
Please give the numeric answer without any surrounding text.

Form field: reported fraction unbound of [11CH3]c1cnccc1N [[^11C]3Me4AP, 3-[^11C]Methyl-4-aminopyridine]
0.94
